tested on: Yap1 mRNA; test: Dose-dependent inhibition of human Yap1 in A-431 cells (Example 8, 10,000 cells per well, RTS4814); format: cell-based; details: 125.0 nM; A-431 cells, 10,000 cells per well, free uptake, approximately 48 hours, RTS4814
Strand notation (5' to 3'): a small letter for the sugar, then the base; units joined by * are phosphorothioate-linked, units joined directly phosphodiester-linked; [ ] holds rarer units or linkages, { } end groups; capitals alone tell only the bases. k = constrained ethyl (cEt); [5mC] = 5-methylcytosine; d = 2'-deoxy (DNA)
Record form. Attribute: Yap1 mRNA, % UTC. Fill in for each entry.
Give bare numbers, in % UTC.

Worked cases, answers included:
1075916 (antisense k[5mC]*kA*kA*dT*dT*dT*dA*dG*dG*dA*dT*dG*d[5mC]*k[5mC]*kT*kT) [compound 1075916]    34
1074726 (antisense kG*kG*kT*dA*dT*dA*dA*d[5mC]*dT*dG*dG*dG*d[5mC]*kA*kA*kA) [compound 1074726]    8

Next:
Report Yap1 mRNA, % UTC for 1075118 (k[5mC]*kT*kA*dT*dT*dT*dA*d[5mC]*dT*d[5mC]*dT*dG*dT*k[5mC]*kA*k[5mC]; antisense) [compound 1075118] please.
36

---

Would you mind telling me the reported IC50 of each entry?
system: Yap1 mRNA; assay: Dose-dependent inhibition of human Yap1 in A-431 cells (Example 7, 10,000 cells per well, RTS36584); assay type: cell-based; details: Table 61, A-431 cells 10,000 cells per well, free uptake
Strand notation (5' to 3'): a small letter for the sugar, then the base; units joined by * are phosphorothioate-linked, units joined directly phosphodiester-linked; [ ] holds rarer units or linkages, { } end groups; capitals alone tell only the bases. k = constrained ethyl (cEt); [5mC] = 5-methylcytosine; d = 2'-deoxy (DNA)
One number for each entry, in nM.

The cases that follow already have their IC50 on record.
958614 (kG*kT*k[5mC]*dT*dT*dG*dT*dT*d[5mC]*dT*dT*dA*dT*kG*kG*kT; antisense) [compound 958614]    100
958534 (kT*kT*k[5mC]*dA*dG*d[5mC]*dA*dT*dA*dG*dA*dA*dG*kT*kA*kG; antisense) [compound 958534]    100
958799 (kA*kT*kT*dA*d[5mC]*dT*d[5mC]*dA*dA*dT*d[5mC]*dA*dT*kG*kG*kT; antisense) [compound 958799]    100
958724 (kT*k[5mC]*kA*dG*dT*dT*dA*dT*d[5mC]*d[5mC]*dT*dA*dT*k[5mC]*k[5mC]*k[5mC]; antisense) [compound 958724]    100
958579 (kA*kT*k[5mC]*dT*dT*dA*dA*dT*d[5mC]*dT*dG*dT*dG*kG*k[5mC]*kT; antisense) [compound 958579]    100

For each entry beneath this line, provide reported IC50.
1. 958529 (k[5mC]*kA*kA*dG*dT*d[5mC]*dT*dT*dG*dT*dA*dA*dG*kT*kA*kA; antisense) [compound 958529]
2. 958729 (kG*kT*k[5mC]*dA*dG*dT*dT*dA*dT*d[5mC]*d[5mC]*dT*dA*kT*k[5mC]*kT; antisense) [compound 958729]
3. 958474 (kG*kT*kG*dT*d[5mC]*dT*d[5mC]*d[5mC]*dT*dT*dA*dG*dA*kT*k[5mC]*k[5mC]; antisense) [compound 958474]
4. 958659 (kG*kT*kT*dG*dT*dA*dT*dT*dA*d[5mC]*dT*d[5mC]*dT*k[5mC]*k[5mC]*kA; antisense) [compound 958659]
5. 958569 (kA*kG*k[5mC]*d[5mC]*dT*dT*dA*dG*dA*dG*dT*d[5mC]*dA*kA*kT*kT; antisense) [compound 958569]

1: 100; 2: 50; 3: 30; 4: 100; 5: 100

Hey, can you go through the list below and give me IC50 for every item?
1. 958599 (kT*kT*k[5mC]*dA*dA*dG*dA*dA*dT*dA*d[5mC]*d[5mC]*d[5mC]*kA*kG*kT; antisense) [compound 958599]
2. 958509 (kA*kT*kG*dT*dT*dA*dT*dG*dT*dT*dT*dG*dG*kG*kT*kG; antisense) [compound 958509]
3. 958454 (antisense kG*kG*kA*dA*dT*dG*dA*dG*d[5mC]*dT*d[5mC]*dG*dA*kA*k[5mC]*kA) [compound 958454]

[200, 30, 40]

Just for reference, patent US11214803B2 is where these values come from.
